# assay target: AChE (Homo sapiens)
# protocol notes: biochemical
quantity kind: IC50 (µM)
Number only, in µM; omit the unit.

query: Kindly state the measured IC50 obtained for "CC(C)(C)c1cc[n+](-c2cnc(Nc3ccc(Cl)cc3)c([N+](=O)[O-])c2)cc1.[O-][Cl+3]([O-])([O-])[O-]" with AChE (Homo sapiens).
result: 34.8

###

# assay target: UniProt P22303
# protocol notes: biochemical
# assay context: read-out: AChE % inhibition at 50 µM; 50 µM; mean ± S.E
# Protocol: Cholinesterase inhibitory activities of all analogs were evaluated spectrometrically using the modified Ellman method as previously reported. […] The absorbance of each well was measured at 415 nm using a microplate reader. IC50 and inhibition values were calculated with the software GraphPad Prism as the mean of three independent experiments and expressed as mean ± SEM[42],[43].
quantity kind: inhibition at 50 µM
Just so you know, I need the unit written after the number.

compound smiles | assay target | inhibition at 50 µM
O=[N+]([O-])c1cc(-c2ccc(F)cc2)cnc1Nc1ccc(Cl)cc1 | UniProt P22303 | 19.3%
O=[N+]([O-])c1cc(-c2ccc(Br)cc2)cnc1Nc1ccc(Cl)cc1 | UniProt P22303 | 27.8%
O=[N+]([O-])c1cc(-c2cccc3ccccc23)cnc1Nc1ccc(Cl)cc1 | UniProt P22303 | 21.4%
COc1ccc(Nc2ncc(-c3ccc(F)cc3)cc2[N+](=O)[O-])cc1 | UniProt P22303 | 10.7%
O=[N+]([O-])c1cc(-c2ccc(Cl)cc2)cnc1Nc1cccc2ccccc12 | UniProt P22303 | 39.7%

query: What value of inhibition at 50 µM has been reported for the following compound? "COc1ccc(Nc2ncc(-c3ccc(Br)cc3)cc2[N+](=O)[O-])cc1"
result: 38.8%

query: Next: "Cc1ccccc1Nc1ncc(-c2cccc3ccccc23)cc1[N+](=O)[O-]"
result: 40.7%

query: Ok, now "Cc1ccccc1Nc1ncc(-c2ccc(Cl)cc2)cc1[N+](=O)[O-]"
result: 23.1%

query: Quick one: "O=[N+]([O-])c1cc(-c2cccc3ccccc23)cnc1Nc1cccc2ccccc12"
result: 34%

###

# assay target: BChE (Homo sapiens, UniProt P06276)
# Sequence (P06276 29-602, species assumed): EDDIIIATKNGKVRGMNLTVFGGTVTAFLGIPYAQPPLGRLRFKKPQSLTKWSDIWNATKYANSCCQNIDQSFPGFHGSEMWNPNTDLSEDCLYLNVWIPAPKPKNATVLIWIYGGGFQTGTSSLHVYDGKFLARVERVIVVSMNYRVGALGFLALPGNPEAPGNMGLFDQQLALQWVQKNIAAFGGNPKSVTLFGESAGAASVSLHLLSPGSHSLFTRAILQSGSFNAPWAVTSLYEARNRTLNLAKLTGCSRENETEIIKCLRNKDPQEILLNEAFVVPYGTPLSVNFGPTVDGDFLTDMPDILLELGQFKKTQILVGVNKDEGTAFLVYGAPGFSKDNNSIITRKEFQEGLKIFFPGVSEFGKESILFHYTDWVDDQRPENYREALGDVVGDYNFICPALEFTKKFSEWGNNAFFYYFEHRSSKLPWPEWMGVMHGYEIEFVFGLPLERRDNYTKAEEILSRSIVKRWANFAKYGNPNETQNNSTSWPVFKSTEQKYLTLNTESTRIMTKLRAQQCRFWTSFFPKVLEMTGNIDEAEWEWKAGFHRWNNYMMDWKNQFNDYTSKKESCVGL
# protocol notes: BChE inhibition, modified Ellman method
# Format: biochemical
# assay context: read-out: BChE % inhibition at 50 µM; 50 µM; mean ± S.E
Threshold check on inhibition at 50 µM: at or above 10% gives TRUE, strictly below gives FALSE.

query: inhibition at 50 µM >= 10% for Cc1ccc(Nc2ncc(-c3ccc(Br)cc3)cc2[N+](=O)[O-])cc1 [3l] ?
result: FALSE

query: And Cc1ccccc1Nc1ncc(-c2cccc3ccccc23)cc1[N+](=O)[O-] [3n] ?
result: TRUE

query: Next compound up: O=[N+]([O-])c1cc(-c2ccc(Cl)cc2)cnc1Nc1ccc(Cl)cc1 [3g]
result: TRUE

query: Input COc1ccc(Nc2ncc(-c3ccc(F)cc3)cc2[N+](=O)[O-])cc1 [3c]
result: FALSE

query: Another: O=[N+]([O-])c1cc(-c2ccc(F)cc2)cnc1Nc1ccc(Cl)cc1 [3e]
result: TRUE

###

# assay target: AChE (Homo sapiens, UniProt P22303)
# Sequence (P22303 32-614): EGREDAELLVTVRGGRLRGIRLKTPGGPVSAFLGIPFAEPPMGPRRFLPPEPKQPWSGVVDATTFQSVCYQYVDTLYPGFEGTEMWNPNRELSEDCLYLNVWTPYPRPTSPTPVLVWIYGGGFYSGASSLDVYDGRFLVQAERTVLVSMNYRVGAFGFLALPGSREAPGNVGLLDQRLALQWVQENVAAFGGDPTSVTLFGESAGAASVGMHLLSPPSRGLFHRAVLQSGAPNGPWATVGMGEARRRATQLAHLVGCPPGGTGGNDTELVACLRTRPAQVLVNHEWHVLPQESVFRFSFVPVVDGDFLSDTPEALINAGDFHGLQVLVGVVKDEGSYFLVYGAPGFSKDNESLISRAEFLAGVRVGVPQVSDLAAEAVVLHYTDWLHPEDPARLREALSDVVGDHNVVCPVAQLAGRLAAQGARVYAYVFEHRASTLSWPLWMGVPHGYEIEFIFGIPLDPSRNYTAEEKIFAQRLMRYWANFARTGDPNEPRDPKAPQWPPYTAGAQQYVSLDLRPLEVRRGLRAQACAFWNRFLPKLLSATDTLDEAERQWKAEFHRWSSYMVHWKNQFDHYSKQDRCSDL
# protocol notes: biochemical
# assay context: read-out: AChE % inhibition at 50 µM; 50 µM; mean ± S.E
# Description: Cholinesterase inhibitory activities of all analogs were evaluated spectrometrically using the modified Ellman method as previously reported. […] The absorbance of each well was measured at 415 nm using a microplate reader. IC50 and inhibition values were calculated with the software GraphPad Prism as the mean of three independent experiments and expressed as mean ± SEM[42],[43].
Recorded measurements of inhibition at 50 µM, one per entry
I only need the number, in %, no unit after it.

compound smiles | inhibition at 50 µM [%]
COc1ccc(Nc2ncc(-c3ccc(Cl)cc3)cc2[N+](=O)[O-])cc1 | 33
Cc1ccc(Nc2ncc(-c3cccc4ccccc34)cc2[N+](=O)[O-])cc1 | 35.6

query: What does the record list as inhibition at 50 µM for "Cc1ccc(Nc2ncc(-c3ccc(Br)cc3)cc2[N+](=O)[O-])cc1" ?
result: 24.9

query: Same question, "O=[N+]([O-])c1cc(-c2ccc(Cl)cc2)cnc1Nc1ccc(Cl)cc1" this time
result: 17.8

query: Repeat with "COc1ccc(Nc2ncc(-c3ccccc3)cc2[N+](=O)[O-])cc1"
result: 28.1

query: Another compound to check: "Cc1ccc(Nc2ncc(-c3ccc(F)cc3)cc2[N+](=O)[O-])cc1"
result: 39.4

query: Please answer likewise for "O=[N+]([O-])c1cc(-c2ccccc2)cnc1Nc1ccc(Cl)cc1"
result: 59.9
